Experiment: A CellTox Green Cytotoxicity Assay to monitor cytotoxicity in HepG2 cells - 24 hour (AID 1224878); note: nearly all actives have a fitted effect of over 45% in size
Conditions: CellTox Green fluorescence; series mostly up to 76.8 µM
Inconclusive results are not listed. Active and inactive are the calls of the source. Calls come from the whole dose curve; as a rule, active = well fitted activation curve with a large enough effect in the repeat runs; inconclusive = weak or mixed curves; inactive = flat fitted curve, though single readings scatter.
I would appreciate it if you answered using one of these outcomes: yes (active), no (inactive)

Some solved cases for reference:
stdin: Query: recorded result category for CCOC(=O)C1(c2ccccc2)CCN(CCC(C#N)(c2ccccc2)c2ccccc2)CC1 in this test
stdout: no

stdin: Item: Nc1ccc(Cc2ccc(N)c(Cl)c2)cc1Cl
stdout: no

stdin: Continue with Cc1cc(C)c(C2=C(OC(=O)CC(C)(C)C)C3(CCCC3)OC2=O)c(C)c1
stdout: no

---
stdin: How was CC(C)(c1ccc(O)c(-c2ccccc2)c1)c1ccc(O)c(-c2ccccc2)c1 classified in this test?
stdout: yes

stdin: Try OC(c1ccc(Cl)cc1)(c1ccc(Cl)cc1)C(Cl)(Cl)Cl next.
stdout: no
